B1: tRNA (parent)
chain: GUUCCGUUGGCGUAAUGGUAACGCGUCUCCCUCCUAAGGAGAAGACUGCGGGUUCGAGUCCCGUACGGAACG

variants of: B1; test: yeast fitness relative to wild type (ratio to wild type); higher = fitter; tRNA-Arg(CCU), competitive growth, 37 C, YPD
This sample holds only a part of the variants without activity.
The label depends only on yeast fitness: condition met if it is at least 0.7, condition not met if it is smaller.

>>> label_value("U13G U54A G68C")
"condition not met"
>>> label_value("U26C U35C A37U")
"condition not met"
>>> label_value("C11G C30G C31G U32A G56A")
"condition not met"
>>> label_value("A37G C61U")
"condition met"
>>> label_value("U16C U53A")
"condition not met"

Note: attention shifts to another entry.
Req: Check this variant for yeast fitness at or above 0.7: U2G A40C G63A G68C
Resp: condition not met
